Attribution: PubChem BioAssay

- Assay Remarks: promoters of myeloid differentiation in arrested cells, primary screen, cell-based, GFP/MAC1 double positive, flow cytometry, validation set (AID 588685);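 further: compound exposure lasts four days before antibody staining and flow analysis; 0% = DMSO wells and 100% = 5 µM fulvestrant positive control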
- Test Context: ER-HoxA9 marrow cells
Activity calls are given as the source filed them.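 How the source made its calls: active means differentiation response of at least 50%, scaled between solvent and reference control, from cells with both markers; inactive means the rest.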
Outcomes: True = active, False = inactive

{"Compound": "CC(C)(C)NCC(O)c1cc(Cl)c(N)c(Cl)c1 (configuration not stated)", "Label": "False"}
{"Compound": "S=C1NCCN1", "Label": "False"}
{"Compound": "CCOC(=O)C1=C(C)OC(N)=C(C(=O)OCC)[C@@]12C(=O)N(CC(N)=O)c1ccccc12", "Label": "False"}
{"Compound": "Clc1ccc(COC(Cn2ccnc2)c2ccc(Cl)cc2Cl)c(Cl)c1 (configuration not stated)", "Label": "False"}
{"Compound": "CC[N+]1(C)CCCC(OC(=O)C(O)(c2ccccc2)c2ccccc2)C1 (configuration not stated)", "Label": "False"}
{"Compound": "COC1=CC(=O)OC(/C=C/c2ccccc2)C1 (configuration not stated)", "Label": "False"}
{"Compound": "C[N+]1(C)CCOC(O)(c2ccc(-c3ccc(C4(O)C[N+](C)(C)CCO4)cc3)cc2)C1 (configuration not stated)", "Label": "False"}
{"Compound": "O=C(CCCN1CCC2(CC1)C(=O)NCN2c1ccccc1)c1ccc(F)cc1", "Label": "False"}
{"Compound": "O=C(O)CCCc1ccc(N(CCCl)CCCl)cc1", "Label": "False"}
{"Compound": "Cn1c(O)c(C=NCCc2c[nH]c3ccccc23)c(=O)n(C)c1=O", "Label": "False"}
{"Compound": "CCOc1ccc(N2C(=O)NC(=O)/C(=C\\c3cc(OC)c(OC)cc3[N+](=O)[O-])C2=O)cc1", "Label": "False"}
{"Compound": "CN1[C@@H]2CC[C@H]1CC(OC(=O)C1C=Nc3ccccc31)C2 (some centres not stated)", "Label": "False"}
{"Compound": "COc1ccc(CN2CC3CC(C2)c2cccc(=O)n2C3)cc1OC (configuration not stated)", "Label": "False"}
{"Compound": "Cc1nc2ccccc2c(=O)n1-c1ccc(C(=O)O)cc1", "Label": "False"}
{"Compound": "CC(=O)[C@H]1CC[C@H]2[C@@H]3CC[C@H]4C[C@H](O)CC[C@]4(C)[C@H]3C(=O)C[C@]12C", "Label": "False"}
{"Compound": "COP(=S)(OC)SCN1C(=O)c2ccccc2C1=O", "Label": "False"}
{"Compound": "CCCC[N+]1(C)[C@@H]2CC(OC(=O)[C@H](CO)c3ccccc3)C[C@H]1[C@@H]1O[C@@H]12 (some centres not stated)", "Label": "False"}
{"Compound": "c1ccc(Cn2ccnc2)cc1", "Label": "False"}
{"Compound": "Cc1cc(OCc2cc(C(=O)O)oc2C)c2c3c(c(=O)oc2c1)CCCC3", "Label": "False"}
{"Compound": "CC1CCC[C@H](O)CCCCCc2cc(O)cc(O)c2C(=O)O1 (some centres not stated)", "Label": "False"}
{"Compound": "CN1C2CCC1CC(OC(=O)CCN1CCCC1)C2 (configuration not stated)", "Label": "False"}
{"Compound": "CCCC(=O)OCC[N+](C)(C)C", "Label": "False"}
{"Compound": "CCNC(=O)[C@H]1O[C@@H](n2cnc3c(N)ncnc32)[C@H](O)[C@@H]1O", "Label": "False"}
{"Compound": "C[C@]12CCC(=O)C=C1CCC1C2CC[C@@]2(C)C1CC[C@@]2(O)CC#N (some centres not stated)", "Label": "False"}
{"Compound": "COc1ccc(OC)c([C@@H](O)[C@H](C)NC(C)(C)C)c1", "Label": "False"}
{"Compound": "O=c1c2ccccc2nc(/C=C/c2ccc3c(c2)OCO3)n1-c1ccccc1", "Label": "False"}
{"Compound": "CN[C@H]1C[C@H]2O[C@@](C)([C@H]1OC)n1c3ccccc3c3c4c(c5c6ccccc6n2c5c31)C(=O)NC4", "Label": "False"}
{"Compound": "C[C@H]1CCCC(=O)CCC/C=C/c2cc(O)cc(O)c2C(=O)O1", "Label": "False"}
{"Compound": "O=C1NC(=O)C2(Cc3ccccc3N3CCCC32)C(=O)N1c1ccc(Cl)cc1 (configuration not stated)", "Label": "False"}
{"Compound": "CC(C)NC(C)C(=O)c1ccc2ccccc2c1 (configuration not stated)", "Label": "True"}
{"Compound": "O=C1CC[C@@]2(O)[C@H]3Cc4ccc(O)c5c4[C@@]2(CCN3CC2CC2)[C@H]1O5", "Label": "False"}
{"Compound": "COc1cccc(Oc2c(C)oc3cc(OC(=O)N(C)C)ccc3c2=O)c1", "Label": "False"}

---

Reported efflux inhibition (fraction of control) values for a set of compounds
- Assay Remarks: inhibitors of fungal efflux pumps CDR1, CDR2, MDR1, pilot screen, validation compound set, multiplex, phenotypic (AID 588506);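 further: Nile Red retained in cells so higher fluorescence means more efflux inhibition; 0 = negative control wells and 1 = enniatin B 25 µM full block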
- Test Context: S. cerevisiae pump-expressing triplex, Nile Red efflux flow cytometry; at 10 µM; hits give high values

{"Compound": "CN1C2CCC1CC(OC(=O)CCN1CCCC1)C2 (stereo not drawn)", "efflux inhibition (fraction of control)": 0.08}
{"Compound": "O=C(CCCN1CCC2(CC1)C(=O)NCN2c1ccccc1)c1ccc(F)cc1", "efflux inhibition (fraction of control)": 0.12}
{"Compound": "CN[C@H]1C[C@H]2O[C@@](C)([C@H]1OC)n1c3ccccc3c3c4c(c5c6ccccc6n2c5c31)C(=O)NC4", "efflux inhibition (fraction of control)": 0.14}
{"Compound": "Cc1cc(Cl)ccc1OCC(=O)O", "efflux inhibition (fraction of control)": -0.35}
{"Compound": "Cc1cc(Cl)ccc1OC(C)C(=O)O (stereo not drawn)", "efflux inhibition (fraction of control)": 0.37}
{"Compound": "[N-]=[N+]=CC(=O)OC[C@H](N)C(=O)O", "efflux inhibition (fraction of control)": -0.13}
{"Compound": "O=C1C(=O)c2ccccc2-c2ccccc21", "efflux inhibition (fraction of control)": 2.06}
{"Compound": "CC[C@]12C=CCN3CCC4(c5cc(Br)c(OC)cc5N(C)C4[C@@](O)(C(=O)OC)[C@@H]1OC(C)=O)C32 (stereo partly drawn)", "efflux inhibition (fraction of control)": 0.23}

---

- Test System: Lethal factor (Bacillus anthracis)
- Assay Remarks: Lethal factor protease inhibitors, Bacillus anthracis, multiplex microsphere cleavage assay, validation set (AID 588461)
- Test Context: flow cytometry, at 10 µM, hits give high values

{"Molecule": "CCCCCC(=O)O[C@]1(C(C)=O)CC[C@H]2[C@@H]3CCC4=CC(=O)CC[C@]4(C)[C@H]3CC[C@@]21C", "inhibition / %": -1.6}
{"Molecule": "CCc1cc(=O)oc2cc(OCc3nn[nH]n3)ccc12", "inhibition / %": 1.9}
{"Molecule": "CCOc1ccc(NC2OC(C)C(O)C(O)C2O)c([N+](=O)[O-])c1 (stereo unspecified)", "inhibition / %": 11.5}
{"Molecule": "COc1ccc2c(c1)[nH]c1c(=O)n(Cc3ccccn3)cnc12", "inhibition / %": -4.7}
{"Molecule": "Cc1cccc2c1CC(C)(C)N/C2=C\\C(N)=O", "inhibition / %": -3.4}
{"Molecule": "CCOC(=O)C1(CCCc2ccccc2)CCN(C2CCN(C(C)=O)CC2)CC1", "inhibition / %": -6.4}

---

- Test system: Botulinum neurotoxin type F light chain protease (Clostridium botulinum)
- Assay Remarks: Botulinum neurotoxin type F light chain protease inhibition, multiplex microsphere flow cytometry, validation set (AID 588459)
- Test Context: multiplex microsphere protease substrate cleavage assay, at 10 µM, hits give high values
Test Readout: inhibition (%)

{"Compound": "O=C(O)CCCCCCNC(=O)c1cncc(O)c1", "Test System": "Botulinum neurotoxin type F light chain protease (Clostridium botulinum)", "Number": -1.8}
{"Compound": "CC(=O)N=c1sc(S(N)(=O)=O)nn1C", "Test System": "Botulinum neurotoxin type F light chain protease (Clostridium botulinum)", "Number": 4.1}
{"Compound": "CCCC(=O)O[C@]1(C(=O)COC(C)=O)CC[C@H]2[C@@H]3C[C@H](F)C4=CC(=O)C=C[C@]4(C)[C@@]3(F)[C@@H](O)C[C@@]21C", "Test System": "Botulinum neurotoxin type F light chain protease (Clostridium botulinum)", "Number": -1.4}
{"Compound": "N/C(=N\\OC(=O)CCCOc1ccc(Cl)cc1Cl)c1ccncc1", "Test System": "Botulinum neurotoxin type F light chain protease (Clostridium botulinum)", "Number": 3.7}
{"Compound": "Cc1ccc2c(c1)C(O)(c1c(C)[nH]c3ccccc13)C(=O)N2 (stereo not given)", "Test System": "Botulinum neurotoxin type F light chain protease (Clostridium botulinum)", "Number": -4.4}

---

Reported inhibition values for a set of molecules
- Test system: Botulinum neurotoxin type F light chain protease (Clostridium botulinum)
- Assay Remarks: Botulinum neurotoxin type F light chain protease inhibition, multiplex microsphere flow cytometry, validation set (AID 588459)
- Test Context: multiplex microsphere protease substrate cleavage assay, at 10 µM, hits give high values
Test Readout: inhibition (%)

{"Molecule": "O=C1c2ccccc2C(=O)C1c1ccccc1", "Unit Spec": "%", "Number": -2.6}
{"Molecule": "CN(C)c1ccc(C(CN)c2c[nH]c3ccccc23)cc1 (centres undefined)", "Unit Spec": "%", "Number": -5.8}
{"Molecule": "CCN(CC)Cc1c[nH]c2c(C(=O)OC)cccc12", "Unit Spec": "%", "Number": -0.7}
{"Molecule": "CN1C(=O)N(C)C(=O)C2(Cc3ccccc3N3CCOCC32)C1=O (centres undefined)", "Unit Spec": "%", "Number": 5}
